# System: MOLM-13 (acute myeloid leukemia, FLT3-ITD positive)
# Experiment Summary: Calcein AM cytotoxicity assay
# Assay type: cell-based
# Experimental Context: Homo sapiens, 72 h; MOLM-13; Calcein AM, three days; read-out: EC50 values (μM) MOLM-13
# Text: Cytotoxicity of the compounds is the major property determining their anticancer effect in vivo. One of the parameters used, as the basis for cytotoxicity assays, is the integrity of cytoplasmic membrane of viable cells. For example, a microtiter assay, which uses acetomethoxy derivate of calcein (Calcein AM), is widely used for evaluation of cell proliferation and cytotoxicity. This assay is used in drug screening programs and in chemosensitivity testing. […]
Experimental Endpoint: EC50 (µM)

- c1cc(Nc2nc(N3CCCCC3)nc3c2ncn3C2CCCC2)ccc1CN1CCOCC1 [Compound 271]: 0.431
- CN1CCN(C(=O)c2ccc(Nc3nc(NCCCCN)nc4c3ncn4C3CCCC3)cc2)CC1 [Compound 27]: 0.019
- CN(C)CCCCNc1nc(Nc2ccc(N3CCOCC3)nc2)c2ncn(C3CCCC3)c2n1 [Compound 183]: 0.005
- NCCCCNc1nc(Nc2ccc(N3CC4(COC4)C3)nc2)c2ncn(C3CCCC3)c2n1 [Compound 28]: 0.004
- NC1CCC(Nc2nc(Nc3ccc(N4CCCC4)cc3)c3ncn(C4CCCC4)c3n2)CC1 (stereo not shown) [Compound 263]: 0.024
- CCN1CCN(c2ccc(Nc3nc(NCCCCN)nc4c3ncn4C3CCCC3)cc2)CC1 [Compound 266]: 0.014
- CN1CCN(C(=O)c2ccc(Nc3nc(NC4CCC(N)CC4)nc4c3ncn4C3CCCC3)cc2)CC1 (stereo not shown) [Compound 3]: 0.02
- NCCCCNc1nc(Nc2ccc(CN3CCOCC3)cc2)c2ncn(C3CCCC3)c2n1 [Compound 270]: 0.014
- CCN1CC2(C1)CN(Cc1ccc(Nc3nc(NC4CCC(O)CC4)nc4c3ncn4C3CCCC3)cc1)C2 (stereo not shown) [Compound 8]: 0.056
- NCCCCCNc1nc(Nc2ccc(CN3CCOCC3)cc2)c2ncn(C3CCCC3)c2n1 [Compound 267]: 0.02
- NC1CCC(Nc2nc(Nc3ccc(N4CCOCC4)cc3)c3ncn(C4CCCC4)c3n2)CC1 (stereo not shown) [Compound 1]: 0.004
- NC1CCC(Nc2nc(Nc3ccc(CN4CC5(COC5)C4)nc3)c3ncn(C4CCCC4)c3n2)CC1 (stereo not shown) [Compound 5]: 0.014
- NC1CCC(Nc2nc(Nc3ccc(CN4CCNCC4)cc3)c3ncn(C4CCCC4)c3n2)CC1 (stereo not shown) [Compound 2]: 0.015
- CN(C)CCNc1nc(Nc2ccc(CN3CCOCC3)nc2)c2ncn(C3CCCC3)c2n1 [Compound 172]: 0.017
- NCCNc1nc(Nc2ccc(CN3CCNCC3)cc2)c2ncn(C3CCCC3)c2n1 [Compound 14]: 0.025
- NC1CCC(Nc2nc(Nc3ccc(N4CC5(COC5)C4)cc3)c3ncn(C4CCCC4)c3n2)CC1 (stereo not shown) [Compound 272]: 0.004
- CN(C)CCCCNc1nc(Nc2ccc(C(=O)N3CCOCC3)cc2)c2ncn(C3CCCC3)c2n1 [Compound 182]: 0.017
- NCCCCNc1nc(Nc2ccc(N3CCOCC3)cc2)c2ncn(C3CCCC3)c2n1 [Compound 265]: 0.016
- NCCCCCCNc1nc(Nc2ccc(CN3CCOCC3)cc2)c2ncn(C3CCCC3)c2n1 [Compound 38]: 0.064
- CN(C)CCCNc1nc(Nc2ccc(C(=O)N3CCOCC3)nc2)c2ncn(C3CCCC3)c2n1 [Compound 179]: 0.078
- CN1CCN(c2nc(Nc3ccc(N4CCNCC4)nc3)c3ncn(C4CCCC4)c3n2)CC1 [Compound 58]: 0.017
- CN1CC2(C1)CN(Cc1ccc(Nc3nc(NCC(O)CN)nc4c3ncn4C3CCCC3)cc1)C2 (stereo not shown) [Compound 199]: 0.043

----------
# System: U937 (monocytic leukemia, wt FLT3)
# Experiment Summary: Calcein AM cytotoxicity assay
# Format: cell-based
# Experimental Context: Homo sapiens, U-937; comparative example; U937, 72 h; read-out: Influence of compounds on proliferation (72 h), EC50 values (μM) U937
Experimental Endpoint: EC50 (µM)

- NC1CCC(Nc2nc(Nc3ccc(CN4CCOCC4)cc3)c3ncn(Cc4ccccc4)c3n2)CC1 (stereo not shown) [Benzyl derivative of compound 264, reference compound]: 2.62

----------
Examples of compounds with documented IC50 follow.
# Target Entity: CDK7Cyclin H/MAT1 (Homo sapiens)
# Construct: purchased ProQinase GmbH
# Sequence (P50613 whole entry): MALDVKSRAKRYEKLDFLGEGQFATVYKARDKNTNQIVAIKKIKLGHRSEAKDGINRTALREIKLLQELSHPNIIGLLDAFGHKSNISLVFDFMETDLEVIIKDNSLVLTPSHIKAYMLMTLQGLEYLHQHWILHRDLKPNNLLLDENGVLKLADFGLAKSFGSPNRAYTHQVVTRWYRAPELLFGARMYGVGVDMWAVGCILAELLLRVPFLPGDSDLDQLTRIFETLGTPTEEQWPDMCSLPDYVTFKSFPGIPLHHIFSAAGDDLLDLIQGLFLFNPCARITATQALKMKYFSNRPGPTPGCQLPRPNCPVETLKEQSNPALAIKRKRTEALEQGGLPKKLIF
# Sequence (P51946 whole entry partner): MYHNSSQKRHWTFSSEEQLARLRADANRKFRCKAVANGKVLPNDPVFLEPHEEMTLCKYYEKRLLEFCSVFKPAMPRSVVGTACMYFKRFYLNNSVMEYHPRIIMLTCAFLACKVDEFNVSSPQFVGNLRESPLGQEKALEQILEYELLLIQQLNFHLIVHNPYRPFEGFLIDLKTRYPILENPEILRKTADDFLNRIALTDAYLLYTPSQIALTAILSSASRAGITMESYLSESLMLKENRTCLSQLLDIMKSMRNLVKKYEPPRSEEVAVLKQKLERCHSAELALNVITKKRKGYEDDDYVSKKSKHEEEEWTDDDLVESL
# Sequence (P51948 whole entry partner): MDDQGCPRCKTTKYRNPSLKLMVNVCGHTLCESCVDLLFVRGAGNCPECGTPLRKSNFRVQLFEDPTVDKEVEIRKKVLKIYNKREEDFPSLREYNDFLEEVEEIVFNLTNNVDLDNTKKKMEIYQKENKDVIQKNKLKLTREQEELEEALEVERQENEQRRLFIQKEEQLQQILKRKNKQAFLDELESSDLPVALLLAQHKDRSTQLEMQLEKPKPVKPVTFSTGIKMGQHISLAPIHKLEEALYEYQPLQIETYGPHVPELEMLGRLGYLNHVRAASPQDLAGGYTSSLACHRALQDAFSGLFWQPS
# Experiment Summary: Kinase inhibition assay with [γ-33P]ATP
# Format: biochemical
# Experimental Context: (YSPTSPS)2KK peptide, 1.5 μM ATP; read-out: IC50 values (μM) CDK7
Experimental Endpoint: IC50 (µM)

- NC1CCC(Nc2nc(Nc3ccc(CN4CCOCC4)cc3)c3ncn(C4CCCC4)c3n2)CC1 (centres unmarked): 0.178
- CN1CC2(C1)CN(c1ccc(Nc3nc(NC4CCC(O)CC4)nc4c3ncn4C3CCCC3)cc1)C2 (centres unmarked): 0.197

----------
# Target Entity: FLT3-ITD (Homo sapiens)
# Experiment Summary: Kinase inhibition assay with [γ-33P]ATP
# Type: biochemical
# Experimental Context: AGLT substrate, 1 μM ATP; read-out: IC50 values (μM) FLT3 ITD
# From the text: CDK1/Cyclin B and CDK2/Cyclin E kinases were produced in Sf9 insect cells via baculoviral infection and purified on a NiNTA column (Qiagen). CDK5/p35 and CDK7Cyclin H/MAT1, FLT3 WT, FLT3-ITD and FLT3 D835 were purchased from ProQinase GmbH. […]
Experimental Endpoint: IC50 (µM)

- CN(C)CCCNc1nc(Nc2ccc(C(=O)N3CCOCC3)nc2)c2ncn(C3CCCC3)c2n1: 0.012
- NCCCCNc1nc(Nc2ccc(N3CC4(COC4)C3)nc2)c2ncn(C3CCCC3)c2n1: 0.003
- CCN1CC2(C1)CN(Cc1ccc(Nc3nc(NCCCN)nc4c3ncn4C3CCCC3)cc1)C2: 0.004
- NCCCCNc1nc(Nc2ccc(CN3CCOCC3)cc2)c2ncn(C3CCCC3)c2n1: 0.002
- CN1CC2(C1)CN(c1ccc(Nc3nc(NC4CCC(O)CC4)nc4c3ncn4C3CCCC3)cc1)C2 (stereo not drawn): 0.005
- NC1CCC(Nc2nc(Nc3ccc(CN4CCOCC4)cc3)c3ncn(C4CCCC4)c3n2)CC1 (stereo not drawn): 0.001
- NC1CCC(Nc2nc(Nc3ccc(N4CCOCC4)cc3)c3ncn(C4CCCC4)c3n2)CC1 (stereo not drawn): 0.002
- CN1CCN(C(=O)c2ccc(Nc3nc(NCCCCN)nc4c3ncn4C3CCCC3)cc2)CC1: 0.002
- NCCNc1nc(Nc2ccc(CN3CCNCC3)cc2)c2ncn(C3CCCC3)c2n1: 0.004
- CN1CCN(C(=O)c2ccc(Nc3nc(NC4CCC(N)CC4)nc4c3ncn4C3CCCC3)cc2)CC1 (stereo not drawn): 0.007
- CN(C)CCNc1nc(Nc2ccc(CN3CCOCC3)nc2)c2ncn(C3CCCC3)c2n1: 0.003
- NCCCCNc1nc(Nc2ccc(N3CCOCC3)cc2)c2ncn(C3CCCC3)c2n1: 0.004
- CCN1CCN(c2ccc(Nc3nc(NCCCCN)nc4c3ncn4C3CCCC3)cc2)CC1: 0.002
- NC1CCC(Nc2nc(Nc3ccc(N4CCCC4)cc3)c3ncn(C4CCCC4)c3n2)CC1 (stereo not drawn): 0.003
- NC1CCC(Nc2nc(Nc3ccc(CN4CCNCC4)cc3)c3ncn(C4CCCC4)c3n2)CC1 (stereo not drawn): 0.004

----------
# Target Entity: FLT3 D835 (Homo sapiens, UniProt P36888)
# Sequence (P36888 1-993 D835Y): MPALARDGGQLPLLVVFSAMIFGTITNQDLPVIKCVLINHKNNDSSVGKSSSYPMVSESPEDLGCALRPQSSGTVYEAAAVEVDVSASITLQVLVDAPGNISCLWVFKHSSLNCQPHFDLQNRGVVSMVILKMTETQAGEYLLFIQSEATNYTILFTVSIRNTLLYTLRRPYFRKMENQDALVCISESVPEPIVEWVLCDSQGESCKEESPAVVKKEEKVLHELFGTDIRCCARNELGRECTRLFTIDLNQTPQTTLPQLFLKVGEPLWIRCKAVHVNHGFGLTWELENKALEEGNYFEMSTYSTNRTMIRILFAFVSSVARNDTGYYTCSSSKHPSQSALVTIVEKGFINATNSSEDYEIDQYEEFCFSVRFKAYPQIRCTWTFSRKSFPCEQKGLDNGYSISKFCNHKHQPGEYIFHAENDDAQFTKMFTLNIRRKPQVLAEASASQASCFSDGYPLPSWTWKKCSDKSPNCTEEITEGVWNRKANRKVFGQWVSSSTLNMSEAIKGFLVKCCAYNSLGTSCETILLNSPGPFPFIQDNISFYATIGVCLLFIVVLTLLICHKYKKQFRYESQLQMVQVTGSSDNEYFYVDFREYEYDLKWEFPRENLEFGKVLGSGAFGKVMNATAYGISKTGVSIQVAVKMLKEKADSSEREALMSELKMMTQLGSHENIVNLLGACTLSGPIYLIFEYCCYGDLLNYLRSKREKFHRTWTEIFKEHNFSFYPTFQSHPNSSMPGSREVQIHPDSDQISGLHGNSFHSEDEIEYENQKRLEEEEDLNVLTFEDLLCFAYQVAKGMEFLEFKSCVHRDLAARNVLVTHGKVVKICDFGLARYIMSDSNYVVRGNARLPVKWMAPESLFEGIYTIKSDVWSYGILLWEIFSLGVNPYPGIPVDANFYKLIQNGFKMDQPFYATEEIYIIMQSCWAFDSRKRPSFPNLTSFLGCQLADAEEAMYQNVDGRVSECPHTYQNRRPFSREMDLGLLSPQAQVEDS
# Experiment Summary: Kinase inhibition assay with [γ-33P]ATP
# Format: biochemical
# Experimental Context: AGLT substrate, 1 μM ATP
Experimental Endpoint: IC50 (µM)

- CN1CCN(C(=O)c2ccc(Nc3nc(NCCCCN)nc4c3ncn4C3CCCC3)cc2)CC1: 0.011
- NCCCCNc1nc(Nc2ccc(CN3CCOCC3)cc2)c2ncn(C3CCCC3)c2n1: 0.005
- NC1CCC(Nc2nc(Nc3ccc(CN4CCOCC4)cc3)c3ncn(C4CCCC4)c3n2)CC1 (stereo not shown): 0.009
- CN(C)CCCNc1nc(Nc2ccc(C(=O)N3CCOCC3)nc2)c2ncn(C3CCCC3)c2n1: 0.023
